- assayTarget: T1, human GIP receptor (human, UniProt P48546 22-466)
- T1 construct: whole, on cells; also called hGIPR
- T1 sequence (looked up): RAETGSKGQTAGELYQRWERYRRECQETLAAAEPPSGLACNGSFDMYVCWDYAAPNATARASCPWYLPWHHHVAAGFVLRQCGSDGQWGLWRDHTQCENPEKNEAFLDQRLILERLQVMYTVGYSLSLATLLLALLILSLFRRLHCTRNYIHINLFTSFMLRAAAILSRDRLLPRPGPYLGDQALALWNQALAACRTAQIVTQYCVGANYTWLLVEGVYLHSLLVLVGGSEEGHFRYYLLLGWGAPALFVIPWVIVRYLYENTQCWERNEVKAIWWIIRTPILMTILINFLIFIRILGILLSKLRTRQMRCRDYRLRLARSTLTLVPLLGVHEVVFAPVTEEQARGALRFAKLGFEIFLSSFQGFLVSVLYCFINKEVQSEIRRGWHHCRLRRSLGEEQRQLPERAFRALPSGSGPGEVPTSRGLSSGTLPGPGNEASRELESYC
- assayProcedure: competition binding vs 125I-GIP(3-30)NH2, COS-7 cells transfected with human GIP receptor
Ends that are not written are not given here.

binder: FISDYSIAMDKIHQQDFVNWLLAQK-NH2 (also called human GIP(6-30)NH2; hGIP(6-30)) [GIP(6-30)NH2]
valueUnits: nM
IC50: 370

binder: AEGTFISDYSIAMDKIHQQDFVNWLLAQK-NH2 (also called human GIP(2-30)NH2; hGIP(2-30)) [GIP(2-30)NH2]
valueUnits: nM
IC50: 7.7
